- targetOrSystem: Myc proto-oncogene protein (Homo sapiens) (UniProt P01106)
- Sequence (P01106 whole entry, the tested form may be a part): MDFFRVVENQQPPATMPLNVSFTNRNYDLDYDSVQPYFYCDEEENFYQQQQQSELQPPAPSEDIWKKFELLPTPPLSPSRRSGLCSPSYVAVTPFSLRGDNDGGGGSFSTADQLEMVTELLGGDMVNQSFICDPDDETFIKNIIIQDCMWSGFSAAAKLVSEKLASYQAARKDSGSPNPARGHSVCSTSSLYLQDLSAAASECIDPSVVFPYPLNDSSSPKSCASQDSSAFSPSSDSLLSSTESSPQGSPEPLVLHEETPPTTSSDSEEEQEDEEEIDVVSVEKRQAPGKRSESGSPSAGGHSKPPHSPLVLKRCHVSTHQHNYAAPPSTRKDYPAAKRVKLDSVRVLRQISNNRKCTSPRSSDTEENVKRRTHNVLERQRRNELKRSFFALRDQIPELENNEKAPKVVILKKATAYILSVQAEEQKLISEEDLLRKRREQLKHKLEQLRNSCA
- experimentDescription: Binding affinity to recombinant human His6 tagged c-Myc bHLH-LZ domain (353 to 439 residues) with GGCD extension at C-terminus expressed in Escherichia coli BL21 DE3 (pLysS) by fluorescence polarization assay
measuredQuantity: K (µM)
Response body: numeric value in µM, unit text excluded.

Form: compound = "CCc1ccc(/C=C2\SC(=S)N(CCC(C)=O)C2=O)cc1" ; K = 1.4

Form: compound = "CCc1ccc(/C=C2\SC(=S)N(CN3CCCCC3)C2=O)cc1" ; K = 5.7

Form: compound = "O=C1/C(=C/c2ccc(Cl)cc2)SC(=S)N1CN1CCCCC1" ; K = 0.6
